Reference source: paper PMC7061854

test_description: clinical
Type: in vivo, human
condition_label: human, in vivo, iv, patients with normal liver function
observed_property: clearance
Value and unit, in that order.

The compound listed as CC[C@H](C)C[C@H](C)CCCCCCCCC(=O)N[C@H]1C[C@@H](O)[C@@H](NCCN)NC(=O)[C@@H]2[C@@H](O)CCN2C(=O)[C@H]([C@H](O)CCN)NC(=O)[C@H]([C@H](O)[C@@H](O)c2ccc(O)cc2)NC(=O)[C@@H]2C[C@@H](O)CN2C(=O)[C@H]([C@@H](C)O)NC1=O [caspofungin, Caspofungin] has a reported clearance of 2.67 mL/min

---

test_description: clinical
Assay type: in vivo, human
condition_label: human, in vivo, iv, patients with mild liver dysfunction (40 U/L < AST ⩽ 120 U/L)
observed_property: clearance (mL/min)
Only the number, expressed in mL/min, is required.

The molecule listed as CC[C@H](C)C[C@H](C)CCCCCCCCC(=O)N[C@H]1C[C@@H](O)[C@@H](NCCN)NC(=O)[C@@H]2[C@@H](O)CCN2C(=O)[C@H]([C@H](O)CCN)NC(=O)[C@H]([C@H](O)[C@@H](O)c2ccc(O)cc2)NC(=O)[C@@H]2C[C@@H](O)CN2C(=O)[C@H]([C@@H](C)O)NC1=O has a reported clearance of 1.95
